The measured values listed here are drawn from patent US20210395239A1.

Target: UniProtKB Q9NYK1
Sequence (Q9NYK1 27-1049): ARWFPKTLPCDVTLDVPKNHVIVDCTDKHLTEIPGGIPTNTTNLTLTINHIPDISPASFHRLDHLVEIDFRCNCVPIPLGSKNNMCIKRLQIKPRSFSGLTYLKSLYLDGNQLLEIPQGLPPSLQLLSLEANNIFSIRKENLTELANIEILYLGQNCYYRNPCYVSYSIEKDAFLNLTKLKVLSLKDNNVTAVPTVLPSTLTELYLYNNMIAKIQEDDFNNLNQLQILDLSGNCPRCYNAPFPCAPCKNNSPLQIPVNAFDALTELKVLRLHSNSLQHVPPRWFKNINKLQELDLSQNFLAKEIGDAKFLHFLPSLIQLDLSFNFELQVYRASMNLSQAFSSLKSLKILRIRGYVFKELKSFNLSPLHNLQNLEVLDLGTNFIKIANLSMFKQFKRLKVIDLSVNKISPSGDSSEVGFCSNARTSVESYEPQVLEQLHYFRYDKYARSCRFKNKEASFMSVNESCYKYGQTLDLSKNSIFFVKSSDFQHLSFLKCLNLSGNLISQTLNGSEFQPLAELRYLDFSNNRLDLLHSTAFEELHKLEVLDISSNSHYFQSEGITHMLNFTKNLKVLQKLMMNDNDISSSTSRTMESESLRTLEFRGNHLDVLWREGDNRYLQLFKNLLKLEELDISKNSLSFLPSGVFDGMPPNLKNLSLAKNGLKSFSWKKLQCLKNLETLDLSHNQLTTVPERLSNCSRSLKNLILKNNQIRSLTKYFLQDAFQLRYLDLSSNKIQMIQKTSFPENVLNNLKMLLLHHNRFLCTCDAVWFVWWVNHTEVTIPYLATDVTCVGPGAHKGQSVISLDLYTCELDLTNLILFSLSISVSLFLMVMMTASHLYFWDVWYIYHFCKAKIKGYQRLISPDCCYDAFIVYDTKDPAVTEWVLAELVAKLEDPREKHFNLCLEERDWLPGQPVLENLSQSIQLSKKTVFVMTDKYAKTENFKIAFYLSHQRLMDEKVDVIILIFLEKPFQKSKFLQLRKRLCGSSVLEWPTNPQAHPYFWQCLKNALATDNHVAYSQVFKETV
Assay: HEK293-Blue-hTLR-7 cells assay (SEAP reporter, R848 stimulation)
Settings: HEK293-Blue-hTLR7 cells, R848, 20 hrs; read-out: HEK/hTLR7 IC50
Experimental: HEK293-Blue-hTLR-7 Cells Assay: A stable HEK293-Blue-hTLR-7 cell line was purchased from InvivoGen (Cat. #: hkb-ht1r7, San Diego, Calif., USA). […] The cell culture supernatant SEAP reporter activity was determined using QUANTI-Blue™ kit (Cat. #: rep-qb1, Invivogen, San Diego, Ca, USA) at a wavelength of 640 nm, a detection medium that turns purple or blue in the presence of alkaline phosphatase. […]
quantity.measured: IC50 (nM)

// known answers, use as guide
{"compound": "Cc1cc(N2CCN(C[C@H]3CN(c4ccc(C#N)c5ncccc45)C[C@@H](C)O3)CC2)nc(N2CC(N)C(F)(F)C2)n1 (stereo partly shown) [Example 63]", "quantity.measured": "IC50", "recorded.result": 54}
{"compound": "Cc1cc(N2CCN(C[C@H]3CN(c4ccc(C#N)c5nccnc45)C[C@@H](C)O3)CC2)nc(N2CCNCC2)n1 [Example 64]", "quantity.measured": "IC50", "recorded.result": 5}
{"compound": "C[C@@H]1CN(c2ccc(C#N)c3ncccc23)C[C@H](CN2CCN(c3cccc(NC4CNC4)n3)CC2)O1 [Example 38]", "quantity.measured": "IC50", "recorded.result": 16}
{"compound": "[2H]c1ccc2c(N3C[C@H](CN4CC(c5ccc(N6C[C@@H](N)[C@H](OC)C6)nc5)C4)O[C@H](C)C3)ccc(C#N)c2n1 [Example 149]", "quantity.measured": "IC50", "recorded.result": 16}
{"compound": "CO[C@H]1CN(c2cccc(N3CCN(C[C@H]4CN(c5ccc(C#N)c6ncccc56)C[C@@H](C)O4)CC3)n2)C[C@H]1N [Example 42]", "quantity.measured": "IC50", "recorded.result": 23}

1. Cc1cc(N2CCN(C[C@H]3CN(c4ccc(C#N)c5ncccc45)C[C@@H](C)O3)CC2)nc(N2CC[C@@H](F)[C@@H](N)C2)n1 [Example 83]
2. CO[C@H]1CN(c2nc(C)cc(N3CCN(C[C@H]4CN(c5ccc(C#N)c6ncccc56)C[C@@H](C)O4)CC3)n2)C[C@@H]1N (single isomer, unassigned) [Example 69A]
Q) Between 1 and 2 , which one shows the larger IC50 value? State your choice using its label.
A) 1
(1: 32 nM, 2: 11 nM)

###

target: hTLR9 (Homo sapiens, UniProt Q9NR96); experiment: HEK293-Blue-hTLR-9 cells assay (SEAP reporter, ODN2006 stimulation); type: cell-based; design: host or cells: HEK293 (HEK-Blue hTLR9); conditions: HEK293-Blue-hTLR9 cells, ODN2006, 20 hrs; read-out: HEK/hTLR9 IC50
Sequence (Q9NR96 26-1032): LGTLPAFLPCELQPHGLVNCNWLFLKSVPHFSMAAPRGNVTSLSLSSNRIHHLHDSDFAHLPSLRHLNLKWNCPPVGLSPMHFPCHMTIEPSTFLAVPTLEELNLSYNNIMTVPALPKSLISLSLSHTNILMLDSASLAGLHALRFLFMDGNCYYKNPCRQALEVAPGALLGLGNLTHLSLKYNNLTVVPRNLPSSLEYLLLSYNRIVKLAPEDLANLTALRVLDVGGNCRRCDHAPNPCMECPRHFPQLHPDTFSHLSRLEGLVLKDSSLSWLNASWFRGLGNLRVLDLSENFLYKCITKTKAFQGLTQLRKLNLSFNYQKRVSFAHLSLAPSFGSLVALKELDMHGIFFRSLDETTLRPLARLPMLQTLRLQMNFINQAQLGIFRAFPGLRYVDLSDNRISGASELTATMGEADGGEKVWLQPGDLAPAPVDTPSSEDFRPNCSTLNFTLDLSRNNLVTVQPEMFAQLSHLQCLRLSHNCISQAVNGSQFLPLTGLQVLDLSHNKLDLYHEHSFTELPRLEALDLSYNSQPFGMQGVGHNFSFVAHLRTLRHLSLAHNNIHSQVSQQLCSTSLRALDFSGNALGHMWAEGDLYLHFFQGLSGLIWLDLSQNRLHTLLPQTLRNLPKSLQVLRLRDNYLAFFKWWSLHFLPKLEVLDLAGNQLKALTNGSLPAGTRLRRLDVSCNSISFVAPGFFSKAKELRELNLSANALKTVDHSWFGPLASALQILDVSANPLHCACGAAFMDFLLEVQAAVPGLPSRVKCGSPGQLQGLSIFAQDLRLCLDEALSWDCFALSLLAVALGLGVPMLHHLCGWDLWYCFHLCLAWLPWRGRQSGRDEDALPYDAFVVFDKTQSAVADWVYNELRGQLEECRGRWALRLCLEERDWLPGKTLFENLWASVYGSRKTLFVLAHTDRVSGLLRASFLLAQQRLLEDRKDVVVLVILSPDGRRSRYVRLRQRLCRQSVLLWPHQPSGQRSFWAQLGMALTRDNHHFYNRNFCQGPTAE
pIC50: −log10 of the molar value.
quantity.measured: pIC50

// known answers, use as guide
{"compound": "Cc1cc(N2CCN(C[C@H]3CN(c4ccc(C#N)c5ncccc45)C[C@@H](C)O3)CC2)nc(N2C[C@@H](N)[C@H](F)C2)n1", "pIC50": 7.20}
{"compound": "[2H]c1ccc2c(N3C[C@H](CN4CCN(c5ncc(N6C[C@@H](N)[C@H](OC)C6)cc5C)CC4)O[C@H](C)C3)ccc(C#N)c2n1", "pIC50": 7.19}
{"compound": "[2H]c1ccc2c(N3C[C@H](CN4CC(c5cccc(N6CC(C)(N)C6)n5)C4)O[C@H](C)C3)ccc(C#N)c2n1", "pIC50": 7.00}
{"compound": "C[C@@H]1CN(c2ccc(C#N)c3ncccc23)C[C@H](CN2CCN(c3ccnc(OCCN(C)C)n3)CC2)O1", "pIC50": 6.60}
{"compound": "C[C@@H]1CN(c2ccc(C#N)c3nccnc23)C[C@H](CN2CCN(c3ccnc(N4C[C@H](N)[C@@H](F)C4)n3)CC2)O1", "pIC50": 7.10}
{"compound": "C[C@@H]1CN(c2ccc(C#N)c3ncccc23)C[C@H](CN2CC(c3cccc(N4CCNCC4)c3)C2)O1", "pIC50": 7.17}
{"compound": "[2H]c1ccc2c(N3C[C@H](CN4CCN(c5ccc(N[C@H]6CNC[C@H]6F)nc5)CC4)O[C@H](C)C3)ccc(C#N)c2n1", "pIC50": 7.44}
{"compound": "Cc1cc(N2CCN(C[C@H]3CN(c4ccc(C#N)c5ncccc45)C[C@@H](C)O3)CC2)nc(N2CCNC(C(C)(C)O)C2)n1 (some centres unmarked)", "pIC50": 7.34}
{"compound": "CO[C@@H]1CN(c2nccc(N3CCN(C[C@H]4CN(c5ccc(C#N)c6nccnc56)C[C@@H](C)O4)CC3)n2)C[C@H]1N", "pIC50": 7.31}
{"compound": "[2H]c1ccc2c(N3C[C@H](CN4CC(O)(c5ccc(N6CC(C)(N)C6)cc5)C4)O[C@H](C)C3)ccc(C#N)c2n1", "pIC50": 7.34}

a. Cc1cc(N2CCN(C[C@H]3CN(c4ccc(C#N)c5ncccc45)C[C@@H](C)O3)CC2)nc(N[C@@H]2CNC[C@@H]2F)n1
b. [2H]c1ccc2c(N3C[C@H](CN4CC(c5cnc(N6C[C@@H](N)[C@H](OC)C6)cc5C)C4)O[C@H](C)C3)ccc(C#N)c2n1
Q) Hi! Which is lower in terms of pIC50, the first one a or the second one b ? State your choice using its label.
A) a

a. COC1CNCC1Nc1nc(C)cc(N2CCN(C[C@H]3CN(c4ccc(C#N)c5ncccc45)C[C@@H](C)O3)CC2)n1 (stereo in doubt)
b. Cc1ccc(N2C[C@H](CN3CCN(c4ccnc(N5CC(N)C5)n4)CC3)O[C@H](C)C2)c2nccnc12
c. Cc1cc(N2CCN(C[C@H]3CN(c4ccc(C#N)c5ncccc45)C[C@@H](C)O3)CC2)nc(N2CC(N)C(F)C2)n1 (stereo in doubt)
Q) Hey, can you sort those compounds up there by pIC50, smallest first? Provide the labels, sequenced as the question asks.
A) b, a, c

A. C[C@@H]1CN(c2ccc(C#N)c3ncccc23)C[C@H](CN2CCN(c3nc(N4CCNCC4)ncc3C#N)CC2)O1
B. [2H]c1ccc2c(N3C[C@H](CN4CCN(c5nc(C)cc(N6C[C@H](OC)[C@@H](N)C6)n5)CC4)O[C@H](C)C3)ccc(C#N)c2n1
Q) Hi! Which is lower in terms of pIC50, the first one A or the second one B ? State your choice using its label.
A) A
